Experiment: NCI Yeast Anticancer Drug Screen. Data for the cln2 rad14 strain (AID 165);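 note: 0% = growth equal to vehicle treated cultures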
Protocol Conditions: S. cerevisiae cln2 rad14 strain, at 50.0 µM, hits give high values
The panel holds about 79,000 compounds, 15% with a hit somewhere; the sample as a whole holds those more often.
Outcome label depends on growth inhibition relative to 10%: at/above gives Fulfilled, below gives Not fulfilled.

Example entries and their recorded answers appear below.
Identify whether the reported growth inhibition of the following compound is 10% or greater: `Cc1c([N+](=O)[O-])cc(C(C)(C)C)c(O)c1[N+](=O)[O-]`
Fulfilled

Identify whether the reported growth inhibition of the following compound is 10% or greater: `CCN(CC)C(=O)CCN1CC1`
Fulfilled

Identify whether the reported growth inhibition of the following compound is 10% or greater: `CC(Br)([N+](=O)[O-])[N+](=O)[O-]`
Fulfilled

Identify whether the reported growth inhibition of the following compound is 10% or greater: `Oc1c(Cl)cc(Cl)c2ccccc12`
Not fulfilled

Identify whether the reported growth inhibition of the following compound is 10% or greater: `OCC12COCN1COC2`
Not fulfilled

Identify whether the reported growth inhibition of the following compound is 10% or greater: CC(N)Cc1ccc(Cl)cc1 (centres undefined)
Not fulfilled

Identify whether the reported growth inhibition of the following compound is 10% or greater: `C1CSCCO1.[Cu+2].[O-][Cl+3]([O-])([O-])O`
Not fulfilled

Identify whether the reported growth inhibition of the following compound is 10% or greater: `O=C1NC(=S)NC(=O)C1=Cc1ccc(-c2ccccc2)cc1`
Fulfilled

Lab note: next compound to report on.
Identify whether the reported growth inhibition of the following compound is 10% or greater: `O=C(O)C(Cl)(Cl)Cl`
Fulfilled

---

Experiment: NCI Yeast Anticancer Drug Screen. Data for the rad50 strain (AID 155);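 note: 0% = growth of vehicle-only cultures of the same strain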
Protocol Conditions: S. cerevisiae rad50 strain growth inhibition; at 50.0 µM
This is part of a sample that, as a whole, favours compounds with a hit. Of some 79,000 tested, about 15% had one in any assay. Active and inactive are the calls of the source. Cut-off read from the data, not from the text of the source: active = growth inhibition above about 70%; inactive = the rest.
Give your call using only these classes: active, inactive

Recorded test outcome, item CC1=NN(c2ccccc2)C(=O)C1N=Nc1ccc([As](=O)(O)O)c(O)c1 (centres undefined)
inactive

More entries:
Recorded test outcome, item O=C1C(CCl)(CCl)CCC12CNC(Cl)(Cl)C2 (centres undefined)
inactive

Recorded test outcome, item `COc1ccc2n[se]nc2c1`
inactive

Recorded test outcome, item CS[P+]1(C)C=C(N2CCOCC2)CC1 (centres undefined)
inactive

Recorded test outcome, item `CCCCN(CCCC)CC(=O)c1ccc(Br)cc1`
inactive

Recorded test outcome, item `O=[N+]([O-])c1ccccc1-c1ccccc1`
inactive

---

Each item that follows carries a reported growth inhibition.
Experiment: NCI Yeast Anticancer Drug Screen. Data for the mlh1 rad18 strain (AID 175)
Protocol Conditions: S. cerevisiae mlh1 rad18 strain growth inhibition; at 50.0 µM; hits give high values
The panel holds about 79,000 compounds, 15% with a hit somewhere; the sample as a whole holds those more often.
Write down the numeric answer in % and omit the unit.

Determine its reported growth inhibition: CC1CCC2[S][Sn]3([NH]C2C1)[NH]C1CC(C)CCC1[S]3 (stereo not given)
96.5

More entries:
Determine its reported growth inhibition: CC1OP(=S)(N2C(=O)c3ccccc3C2=O)OC2CCCCC12 (stereo not given)
-5.9

Determine its reported growth inhibition: O=C1C=CC(=O)C(Br)C1Br (stereo not given)
66.2

Determine its reported growth inhibition: `[C-]#[O+].[C-]#[O+].[C-]#[O+].[Ni].c1ccc([PH+](CC[PH+](c2ccccc2)c2ccccc2)CC[PH+](c2ccccc2)c2ccccc2)cc1`
46.3

Determine its reported growth inhibition: `Cc1c[n+]2ccc3ccccc3c2c2ccccc12`
-11.7
